Values from paper PMC5816626

// reported MIC per item
# System: M. tuberculosis 88.2 mutant (coaA A620G (Q207R))
# Format: cell-based, Mycobacterium tuberculosis
State just the number; it will be interpreted in µg/mL.

molecule: Cc1ccc(C(=O)Nc2ccc([N+](=O)[O-])cc2)s1 [compound 7947882]
MIC, µg/mL: 2.5
--
molecule: CC1=CC=C(C(=O)Nc2ccc([N+](=O)[O-])cc2)S1(=O)=O [compound 11426026]
MIC, µg/mL: 2.5

Record CCc1cc(C(N)=S)ccn1 [Ethionamide, reference compound] , field MIC: 1

Record O=C(CCc1ccccc1)NC(=S)Nc1ccc(N2CCCCC2)cc1 [compound 7904688] , field MIC: 10
